Test Name: Pharmacokinetics after subcutaneous administration in rats (plasma, LC-MS/MS)
Type: in vivo, Sprague Dawley rats
Assay Setup: male, Sprague-Dawley, sc; rat plasma, subcutaneous 1 mg/kg; read-out: apparent Cmax
Assay Endpoint: Cmax
The answer consists of two parts: a number and, after it, its unit.

# lookup: Cmax of CC(=O)N1CCC[C@@H]1C(=O)N[C@H](Cc1ccc(O)cc1)C(=O)N[C@H](Cc1c[nH]cn1)C(=O)N[C@H](CO)C(=O)N[C@@H](C(=O)N[C@H](Cc1ccc(O)cc1)C(=O)NCC(=O)N[C@H](CCC(=O)O)C(N)=O)[C@H](C)O (relative stereo)
1230 ng/mL

* * *

Test system: MPTP-treated mice
Test Name: MPTP mouse Parkinson's model, striatal dopamine and metabolites by HPLC
Type: in vivo, C57BL mice
Assay Setup: striatal level, peptide 1 mg/kg intranasal, divided by total protein and normalized to vehicle treated mice
Marks after values point to notes of the source that are not given here.
Field: DA. Provide a value for each of the substances that follow.

Some solved cases for reference:
Give its DA value. Item: hV10A2: human CD44V10-derived peptide, SEQ ID NO: 12; sequence not printed (TKESRTFIPVTSAKT; Human V10A2 peptide)
24.7

Look up DA: PVTSAKTGSFG [V10A/B_S]
26.6

State recorded DA for all listed substances.
1. hV10B3: human CD44V10-derived peptide, SEQ ID NO: 15; sequence not printed (SLSGDQDTFHPSG; Human V10B3 peptide)
2. FGVTAVTV (Human V10B1_8 peptide (also referred to as P34))
3. TTLLEG (Human V10A1_N6 peptide)

18.1
46.6 *
17.7

* * *

Test Name: Pharmacokinetics after subcutaneous administration in rats (plasma, LC-MS/MS)
Format: in vivo, Sprague Dawley rats
Assay Setup: male, Sprague-Dawley, sc; rat plasma, subcutaneous 1 mg/kg; read-out: apparent Cmax
Assay Endpoint: Cmax (ng/mL)
One number for each entry, in ng/mL.

Requested read-out: Cmax. Entry: Ac-EGYTSHYP-NH2 (N-terminus and C-terminus assumed) [V10A1_N+4, EGYTSHYP]
130
